test: Cytotoxicity against mouse J774A1 cells assessed as reduction in cell viability incubated for 48 hrs by MTT assay; type: cell-based, J774.A1

[
  {
    "smiles-repr": "COC(=O)c1c(NCCNc2cc(C(F)(F)F)nc3c(C(F)(F)F)cccc23)noc1-c1ccccc1F",
    "unit-annotation": "µM",
    "CC50 at 48 h": 80.4
  },
  {
    "smiles-repr": "COC(=O)c1c(NCCCNc2ccnc3cc(Cl)ccc23)noc1-c1cc2c(cc1[N+](=O)[O-])OCO2",
    "unit-annotation": "µM",
    "CC50 at 48 h": 73.6
  },
  {
    "smiles-repr": "O=C(NCc1cccc(Cl)c1Cl)c1c([N+](=O)[O-])noc1-c1ccc(Cl)cc1Cl",
    "unit-annotation": "µM",
    "CC50 at 48 h": 81.8
  },
  {
    "smiles-repr": "O=C(NCc1ccc(F)cc1)c1c([N+](=O)[O-])noc1-c1ccc(Cl)cc1Cl",
    "unit-annotation": "µM",
    "CC50 at 48 h": 86.4
  },
  {
    "smiles-repr": "COC(=O)c1c([N+](=O)[O-])noc1-c1cccc(-c2cnco2)c1",
    "unit-annotation": "µM",
    "CC50 at 48 h": 19.7
  },
  {
    "smiles-repr": "O=C(Nc1ccccc1)c1c([N+](=O)[O-])noc1-c1ccc(Cl)cc1Cl",
    "unit-annotation": "µM",
    "CC50 at 48 h": 67.3
  },
  {
    "smiles-repr": "CCN(CC)CCNc1noc(-c2ccc([N+](=O)[O-])cc2)c1C(=O)OC",
    "unit-annotation": "µM",
    "CC50 at 48 h": 69.2
  },
  {
    "smiles-repr": "COC(=O)c1c(NCc2ccc(Cl)cc2)noc1-c1ccc(Cl)cc1Cl",
    "unit-annotation": "µM",
    "CC50 at 48 h": 176
  },
  {
    "smiles-repr": "COC(=O)c1c(NCc2ccc(Cl)cc2)noc1-c1ccc([N+](=O)[O-])cc1",
    "unit-annotation": "µM",
    "CC50 at 48 h": 78.3
  }
]

====

experiment: Selectivity index, ratio of CC50 for mouse J774.A1 cells to IC50 for amastigote form of Leishmania donovani MHOM/IN/80/Dd8; type: toxicity; conditions: read-out: Ratio CC50/IC50
Use MET when the recorded selectivity ratio is no lower than 6; use NOT MET when it is lower.

[
  {
    "smiles-repr": "COC(=O)c1c([N+](=O)[O-])noc1-c1cc2c(cc1[N+](=O)[O-])OCO2",
    "label-value": "MET"
  },
  {
    "smiles-repr": "COc1cccc(CNC(=O)c2c([N+](=O)[O-])noc2-c2ccc(Cl)cc2Cl)c1",
    "label-value": "NOT MET"
  },
  {
    "smiles-repr": "COC(=O)c1c(NCCCNc2ccnc3cc(Cl)ccc23)noc1-c1ccc([N+](=O)[O-])cc1",
    "label-value": "MET"
  },
  {
    "smiles-repr": "COC(=O)c1c(NCCCCNc2ccnc3cc(Cl)ccc23)noc1-c1cc2c(cc1[N+](=O)[O-])OCO2",
    "label-value": "MET"
  },
  {
    "smiles-repr": "COc1ccc(CNC(=O)c2c([N+](=O)[O-])noc2-c2ccc(Cl)cc2Cl)cc1",
    "label-value": "MET"
  },
  {
    "smiles-repr": "COC(=O)c1c(NCCNc2cc(C(F)(F)F)nc3c(C(F)(F)F)cccc23)noc1-c1ccccc1F",
    "label-value": "NOT MET"
  },
  {
    "smiles-repr": "COC(=O)c1c([N+](=O)[O-])noc1-c1ccccc1F",
    "label-value": "NOT MET"
  },
  {
    "smiles-repr": "COC(=O)c1c(NCCCCNc2ccnc3cc(Cl)ccc23)noc1-c1ccc([N+](=O)[O-])cc1",
    "label-value": "MET"
  },
  {
    "smiles-repr": "COC(=O)c1c([N+](=O)[O-])noc1-c1ccc(Cl)cc1Cl",
    "label-value": "NOT MET"
  },
  {
    "smiles-repr": "COC(=O)c1c(NCCCCNc2ccnc3cc(Cl)ccc23)noc1-c1ccccc1F",
    "label-value": "NOT MET"
  },
  {
    "smiles-repr": "COC(=O)c1c(NCc2ccc(C(C)(C)C)cc2)noc1-c1cc2c(cc1[N+](=O)[O-])OCO2",
    "label-value": "MET"
  },
  {
    "smiles-repr": "COc1ccc(CNC(=O)c2c([N+](=O)[O-])noc2-c2ccc(Cl)cc2)cc1OC",
    "label-value": "MET"
  },
  {
    "smiles-repr": "COC(=O)c1c(NCCNc2ccnc3cc(Cl)ccc23)noc1-c1ccc([N+](=O)[O-])cc1",
    "label-value": "NOT MET"
  },
  {
    "smiles-repr": "COC(=O)c1c(NCc2ccccc2)noc1-c1ccc(Cl)cc1Cl",
    "label-value": "MET"
  },
  {
    "smiles-repr": "COC(=O)c1c(NCc2ccc(OC)cc2)noc1-c1ccc(Cl)cc1Cl",
    "label-value": "NOT MET"
  },
  {
    "smiles-repr": "COc1ccc(CNC(=O)c2c([N+](=O)[O-])noc2-c2ccc([N+](=O)[O-])cc2)cc1",
    "label-value": "MET"
  },
  {
    "smiles-repr": "COC(=O)c1c(NCCNc2ccnc3cc(Cl)ccc23)noc1-c1ccc(Cl)cc1Cl",
    "label-value": "NOT MET"
  },
  {
    "smiles-repr": "COC(=O)c1c(NCc2ccc(Cl)cc2)noc1-c1cc2c(cc1[N+](=O)[O-])OCO2",
    "label-value": "MET"
  }
]

====

test: AUC (0 to infinity) in golden hamster at 100 mg/kg, po measured upto 24 hrs by LC/MS-MS analysis; format: ADME, organism-based, Mesocricetus auratus; set-up: route oral, dose 100 mg/kg, time <=24; details: in vivo

[
  {
    "smiles-repr": "COC(=O)c1c(NCc2ccc(C(C)(C)C)cc2)noc1-c1cc2c(cc1[N+](=O)[O-])OCO2",
    "AUC(0-inf)": "149 ng·h/mL"
  }
]

====

assay: Tmax in golden hamster at 100 mg/kg, po measured upto 24 hrs by LC/MS-MS analysis; format: ADME, organism-based, Mesocricetus auratus; conditions: in vivo

[
  {
    "smiles-repr": "COC(=O)c1c(NCc2ccc(C(C)(C)C)cc2)noc1-c1cc2c(cc1[N+](=O)[O-])OCO2",
    "unit-annotation": "h",
    "Tmax": 3
  }
]

====

test: Cmax in golden hamster at 100 mg/kg, po measured upto 24 hrs by LC/MS-MS analysis; format: ADME, organism-based, Mesocricetus auratus; parameters: route oral, dose 100 mg/kg, time <=24; settings: in vivo
parameter: Cmax (ng/mL)

[
  {
    "smiles-repr": "COC(=O)c1c(NCc2ccc(C(C)(C)C)cc2)noc1-c1cc2c(cc1[N+](=O)[O-])OCO2",
    "numeric-result": 15.4
  }
]

====

assay: MRT in golden hamster at 100 mg/kg, po measured upto 24 hrs by LC/MS-MS analysis; assay type: ADME, organism-based, Mesocricetus auratus; settings: in vivo

[
  {
    "smiles-repr": "COC(=O)c1c(NCc2ccc(C(C)(C)C)cc2)noc1-c1cc2c(cc1[N+](=O)[O-])OCO2",
    "MRT [h]": 9.53
  }
]

====

test: Cytotoxicity against mouse J774A1 cells assessed as reduction in cell viability incubated for 48 hrs by MTT assay; format: cell-based, J774.A1
parameter: CC50 at 48 h (µM)

[
  {
    "smiles-repr": "O=C(NCc1ccc(F)cc1)c1c([N+](=O)[O-])noc1-c1ccc(Cl)cc1",
    "parameter": "CC50 at 48 h",
    "numeric-result": 91.9
  },
  {
    "smiles-repr": "COC(=O)c1c(NCc2ccc(OC)cc2)noc1-c1ccc(Cl)cc1Cl",
    "parameter": "CC50 at 48 h",
    "numeric-result": 34.6
  },
  {
    "smiles-repr": "COc1ccc(CNC(=O)c2c([N+](=O)[O-])noc2-c2ccc(Cl)cc2Cl)cc1OC",
    "parameter": "CC50 at 48 h",
    "numeric-result": 81.8
  },
  {
    "smiles-repr": "COC(=O)c1c(NCCCN2CCOCC2)noc1-c1cc2c(cc1[N+](=O)[O-])OCO2",
    "parameter": "CC50 at 48 h",
    "numeric-result": 65
  },
  {
    "smiles-repr": "O=C(NCc1cccc(Cl)c1Cl)c1c([N+](=O)[O-])noc1-c1ccc(Cl)cc1",
    "parameter": "CC50 at 48 h",
    "numeric-result": 73.7
  },
  {
    "smiles-repr": "CCCNC(=O)c1c([N+](=O)[O-])noc1-c1ccc([N+](=O)[O-])cc1",
    "parameter": "CC50 at 48 h",
    "numeric-result": 76.2
  },
  {
    "smiles-repr": "COC(=O)c1c(NCCCCNc2ccnc3cc(Cl)ccc23)noc1-c1ccccc1F",
    "parameter": "CC50 at 48 h",
    "numeric-result": 70.9
  },
  {
    "smiles-repr": "COC(=O)c1c([N+](=O)[O-])noc1-c1ccccc1Cl",
    "parameter": "CC50 at 48 h",
    "numeric-result": 80
  },
  {
    "smiles-repr": "O=C(c1c([N+](=O)[O-])noc1-c1ccc([N+](=O)[O-])cc1)N1CCOCC1",
    "parameter": "CC50 at 48 h",
    "numeric-result": 66
  }
]
